These entries and their values trace back to patent US20160114035A1.

System Under Test: DRB1*0101
Assay Info: binding to purified HLA
Quantity Kind: pIC50
Lab note: report pIC50 as minus log10 of the concentration in molar units, number only.

Q. What measured pIC50 goes with AAAYFVAAWTLHAAA [Y4.H12] ?
A. 8.43

Q. And for AAAFFVAANTLKADA [F4.N9.D14] ?
A. 8.47

Q. And for AAAYFVAAFTLHAAA [Y4.F9.H12] ?
A. 8.47

Q. And for AAAYFVAANTLHAAA [Y4.N9.H12] ?
A. 8.35

Q. And for AAAWFVAANTLHAAA [W4.N9.H12] ?
A. 8.42

Q. And for AAAFFVAANTLHAAA [F4.N9.H12] ?
A. 8.19

Continuing:
Q. What measured pIC50 goes with AAAHFVAAWTLHAAA [H4.H12] ?
A. 8.38

Q. And for AAAKFVAAWTLKAAA [SEQ ID NO: 4] ?
A. 8.48
